B1: CD207 (parent)
chain: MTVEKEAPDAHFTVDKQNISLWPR

# Variants of: B1
# assay.explanation: protein stability index of a GFP-peptide fusion (GPS, HEK-293T) (PSI 1-6); higher = more stable;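 note: lentivirally expressed fusions sorted by FACS into six bins by GFP to DsRed ratio, PSI derived from sequencing read proportions per bin multiplied by bin number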
# settings: c terminus: a fixed tail appended
metric.name: protein stability index

MTVEKEAPDAHFTLDKQNISLWPR [V14L]: 2.93
MTVRKEAPDAHFTVDKQNISLWPR [E4R]: 3.02

Proceeding to the next variant to report its protein stability index.
# query: protein stability index of entry MTVEKEAPDAHFTVDKQYISLWPR [N18Y]
2.97
